Provide the recorded IC50 for the entries that follow.
test system: PLC-PRF-5 cells; assay: Inhibition of proliferation of PLC-PRF-5 cells (ATPlite); format: cell-based; conditions: Homo sapiens, PLC-PRF-5, PLC-PRF-5 cells; read-out: PLC-PRF-5 cell proliferation IC50
Give bare numbers, in nM.

Asked: Which IC50 reading was recorded for the molecule O=C(Nc1ccc(Oc2ccnc(NC(=O)C3CC3)c2)nc1)Nc1ccc(Cl)c(C(F)(F)F)c1 ?
Given back: 1990

Asked: What does the record list as IC50 for CN1CC(Oc2cc(NC(=O)Nc3ccc(Oc4ccnc(NC(=O)C5CC5)c4)cc3)cc(C(F)(F)F)c2)C1 ?
Given back: 1770

Asked: Name the reported IC50 value associated with the molecule Cc1cc(Oc2cc(NC(=O)C3CC3)ncn2)ccc1NC(=O)Nc1cc(OC(F)(F)F)ccc1F
Given back: 3040

Asked: Given the entry O=C(Nc1cc(-c2ccncc2)cc(C(F)(F)F)c1)Nc1ccc(Oc2ccnc(NC(=O)C3CC3)c2)c(F)c1 , report its measured IC50.
Given back: 642

Asked: Any idea what IC50 was measured for O=C(Nc1cnc(Oc2ccnc(NC(=O)C3CC3)c2)c(F)c1)Nc1ccc(Cl)c(C(F)(F)F)c1 ?
Given back: 371

Asked: Need IC50, item Cc1cc(Oc2cc(NC(=O)C3CC3)ncn2)ccc1NC(=O)Nc1ccc(NC2CCN(C)CC2)c(C(F)(F)F)c1
Given back: 879

Kindly consider the entry below.
Asked: I have this molecule here, Cc1ccc(Oc2ccnc(NC(=O)C3CC3)c2)cc1NC(=O)Nc1cccc(C(F)(F)F)c1 , and I need its recorded IC50.
Given back: 3530

---

tested on: PLC-PRF-5 cells; assay: Inhibition of proliferation of PLC-PRF-5 cells (ATPlite); type: cell-based; settings: Homo sapiens, PLC-PRF-5, PLC-PRF-5 cells; read-out: PLC-PRF-5 cell proliferation IC50
PROPERTY: pIC50
One number for each entry, as −log10 of the molar value.

# annotated cases, reported pIC50 shown
Asked: For Cc1cc(NC(=O)Nc2ccc(F)c(C(F)(F)F)c2)ccc1Oc1ccnc(NC(=O)C2CC2)c1 , what is its reported pIC50?
Given back: 6.08

Asked: For the compound shown here, Cc1cc(NC(=O)Nc2cccc(OC(F)(F)F)c2)ccc1Oc1ccnc(NC(=O)C2CC2)c1 , give the reported pIC50.
Given back: 6.38

Asked: Any idea what pIC50 was measured for O=C(Nc1ccc(Oc2cc(NC(=O)C3CC3)ncn2)nc1)Nc1ccc(Cl)c(C(F)(F)F)c1 ?
Given back: 5.19

Asked: Any idea what its pIC50 is? The compound is Cc1cc(NC(=O)Nc2ccc(F)c(C(F)(F)F)c2)ccc1Oc1cc(NC(=O)C2CC2)ncn1
Given back: 5.58

Asked: Sample O=C(Nc1ccc(Oc2ccnc(NC(=O)C3CC3)c2)c(F)c1)Nc1cc(Cl)ccc1F — what was its pIC50?
Given back: 6.21

Asked: Quick one: pIC50 for CC(F)(F)c1cccc(NC(=O)Nc2ccc(Oc3ccnc(NC(=O)C4CC4)c3)c(F)c2)c1 ?
Given back: 6.82

Asked: What value of pIC50 has been recorded for this entry: CC(F)(F)c1ccc(F)c(NC(=O)Nc2ccc(Oc3ccnc(NC(=O)C4CC4)c3)cc2F)c1
Given back: 7.68

Kindly review the next compound as well.
Asked: Item under review: Cc1cc(Oc2ccnc(NC(=O)C3CC3)c2)ncc1NC(=O)Nc1cc(C(C)(F)F)ccc1F . Reported pIC50?
Given back: 6.09

---

Can you tell me pIC50 for the items I'm about to list?
test system: PLC-PRF-5 cells; experiment: Inhibition of proliferation of PLC-PRF-5 cells (ATPlite); type: cell-based; details: Homo sapiens, PLC-PRF-5, read-out: PLC-PRF-5 cell proliferation IC50
Give bare numbers, as −log10 of the molar value.

Illustrative cases are given below, each with its answer.
Asked: Consider the compound shown here: N#Cc1ccc(NC(=O)Nc2ccc(Oc3ccnc(NC(=O)C4CC4)c3)c(F)c2)cc1C(F)(F)F What is its recorded pIC50?
Given back: 5.52

Asked: Recorded pIC50 for N#Cc1ccc(NC(=O)Nc2ccc(Oc3ccnc(NC(=O)C4CC4)c3)cc2F)cc1C(F)(F)F , please?
Given back: 5.78

Asked: If you can, please state the reported pIC50 value of Cc1cc(Oc2cc(NC(=O)C3CC3)ncn2)ccc1NC(=O)Nc1ccc(C#N)c(Cl)c1 .
Given back: 4.71

Asked: Report pIC50 for N#Cc1ccc(NC(=O)Nc2ccc(Oc3ccnc(NC(=O)C4CC4)c3)cc2)cc1C(F)(F)F please.
Given back: 6.18

Asked: I am curious: what pIC50 value has been reported for N#Cc1ccc(NC(=O)Nc2ccc(Oc3ccnc(NC(=O)C4CC4)c3)cn2)cc1C(F)(F)F ?
Given back: 5.99

// switching to the query compound
Asked: So what's the measured pIC50 for this one? N#Cc1ccc(NC(=O)Nc2ccc(Oc3ccnc(NC(=O)C4CC4)c3)cc2F)cc1Cl
Given back: 5.90

---

tested on: pERK in MDA-MB-231 cells; assay: Inhibitory activity at pERK (In Cell Western, MDA-MB-231 cells); assay type: cell-based; settings: MDA-MB-231 cells; read-out: MDA-MB-231 pERK IC50
Give IC50 for every item shown.
Answers are plain numbers, in nM.

Asked: Recall the recorded IC50 for O=C(Nc1ccc(Oc2ccnc(NC(=O)C3CC3)c2)c(F)c1)Nc1ccc(Cl)c(C(F)(F)F)c1 [Exe. 022] with pERK in MDA-MB-231 cells and state it.
Given back: 19.5

Continuing:
Asked: Under pERK in MDA-MB-231 cells: IC50 value of O=C(Nc1ccc(Oc2ccnc(NC(=O)C3CC3)c2)c(F)c1)Nc1ccc(Cl)c(C(F)(F)F)c1 [Exe. 027] ?
Given back: 66.5

---

system: PLC-PRF-5 cells; experiment: Inhibition of proliferation of PLC-PRF-5 cells (ATPlite); type: cell-based; conditions: Homo sapiens, PLC-PRF-5, PLC-PRF-5 cells; read-out: PLC-PRF-5 cell proliferation IC50
PROPERTY: IC50 (nM)
Answers are plain numbers, in nM.

Some compounds with recorded IC50:
Asked: Fill blank: measured IC50 of the compound O=C(Nc1ccc(Oc2ccnc(NC(=O)C3CC3)c2)c(F)c1)Nc1cc(C(F)(F)F)cc(N2CCOCC2)n1 is ____.
Given back: 240

Asked: Param item = CC(F)(F)c1ccnc(NC(=O)Nc2ccc(Oc3ccnc(NC(=O)C4CC4)c3)cc2)c1 ; retrieve measured IC50.
Given back: 1160

Asked: IC50 lookup needed for Cc1ccc(NC(=O)Nc2ccc(Oc3ccnc(NC(=O)C4CC4)c3)cc2F)cc1C(F)(F)F , thanks.
Given back: 71

Next compound, please.
Asked: Given the entry Cc1cc(NC(=O)Nc2ccc(Cl)c(C(F)(F)F)c2)ccc1Oc1ccnc(NC(=O)C2CC2)c1 , report its measured IC50.
Given back: 1300

---

tested on: PLC-PRF-5 cells; test: Inhibition of proliferation of PLC-PRF-5 cells (ATPlite); format: cell-based; conditions: Homo sapiens, PLC-PRF-5, PLC-PRF-5 cells; read-out: PLC-PRF-5 cell proliferation IC50
Please use y for IC50 under 2000 nM and n for everything else, ties included.

Asked: Quick check: does Cc1cc(Oc2cc(NC(=O)C3CC3)ncn2)c(F)cc1NC(=O)Nc1ccc(Cl)c(C(C)(F)F)c1 have IC50 under 2000 nM?
Given back: n

Asked: Please indicate whether the reported IC50 of O=C(Nc1ccc(Oc2ccnc(NC(=O)C3CC3)c2)nc1)Nc1cc(N2CCC(F)CC2)cc(C(F)(F)F)c1 is strictly below 2000 nM.
Given back: n

Asked: Report whether reported IC50 is lower than 2000 nM (strictly) for O=C(Nc1cc(-c2cccnc2)cc(C(F)(F)F)c1)Nc1ccc(Oc2ccnc(NC(=O)C3CC3)c2)c(F)c1
Given back: y

Asked: Input O=C(Nc1ccc(Oc2ccnc(NC(=O)C3CC3)c2)c(F)c1)Nc1ccc2[nH]cc(F)c2c1 ; condition: IC50 strictly below 2000 nM. Does it hold?
Given back: y

Asked: Lab log: compare recorded IC50 with 2000 nM; is it strictly lower for CC1CN(c2cc(NC(=O)Nc3ccc(Oc4ccnc(NC(=O)C5CC5)c4)c(F)c3)cc(C(F)(F)F)c2)CCO1 (stereo not drawn) ?
Given back: y

Asked: Please determine if CC(F)(F)c1cc(NC(=O)Nc2cc(F)cc(Oc3cc(NC(=O)C4CC4)ncn3)c2)ccc1Cl is below 2000 nM in terms of IC50.
Given back: n

Asked: IC50 strictly < 2000 nM for this compound? O=C(Nc1cc(N2CCC(O)CC2)cc(C(F)(F)F)c1)Nc1ccc(Oc2ccnc(NC(=O)C3CC3)c2)c(F)c1
Given back: y

---

molecular target: KDR kinase (790-1356 AA) (Homo sapiens (Human), UniProt P35968)
Sequence (P35968 790-1356): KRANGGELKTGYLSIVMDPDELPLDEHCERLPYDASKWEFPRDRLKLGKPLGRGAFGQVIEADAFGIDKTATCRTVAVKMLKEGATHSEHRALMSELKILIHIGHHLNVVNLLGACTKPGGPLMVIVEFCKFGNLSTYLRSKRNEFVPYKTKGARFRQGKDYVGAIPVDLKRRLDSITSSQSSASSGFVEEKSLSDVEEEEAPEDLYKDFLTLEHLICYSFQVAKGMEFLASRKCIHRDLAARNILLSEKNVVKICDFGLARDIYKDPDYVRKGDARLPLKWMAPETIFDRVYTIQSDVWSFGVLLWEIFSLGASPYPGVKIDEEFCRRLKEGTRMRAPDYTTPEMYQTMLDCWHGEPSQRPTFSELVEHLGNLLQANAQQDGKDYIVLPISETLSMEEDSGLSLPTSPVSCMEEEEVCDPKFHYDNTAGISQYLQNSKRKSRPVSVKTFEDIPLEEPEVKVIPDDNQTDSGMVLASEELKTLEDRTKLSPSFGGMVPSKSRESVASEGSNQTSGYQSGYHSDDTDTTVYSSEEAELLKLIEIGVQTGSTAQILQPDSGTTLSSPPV
PROPERTY: pIC50
Answers are plain numbers, as −log10 of the molar value.

Worked set:
Asked: For the compound shown here, Cc1cc(NC(=O)Nc2ccc(Cl)c(OC(F)(F)F)c2)ccc1Oc1cc(NC(=O)C2CC2)ncn1 [Exe. 114] , give the reported pIC50.
Given back: 8.01

Asked: # lookup: pIC50 of COc1ccc(NC(=O)Nc2cnc(Oc3ccnc(NC(=O)C4CC4)c3)c(C)c2)cc1C(F)(F)F [Exe. 125]
Given back: 8.06

Asked: Dear colleague, I am looking for the recorded pIC50 of the following compound: N#Cc1cc(NC(=O)Nc2ccc(Oc3ccnc(NC(=O)C4CC4)c3)c(F)c2)cc(C(F)(F)F)c1 [Exe. 190]
Given back: 7.92

Asked: Suppose we examine the compound O=C(Nc1cccc(C(F)(F)F)c1)Nc1ccc(Oc2ccnc(NC(=O)C3CC3)c2)cc1F [Exe. 211] ; what pIC50 value has been reported?
Given back: 8.11

Asked: What value of pIC50 has been reported for the following compound? CC(F)(F)c1cc(NC(=O)Nc2ccc(Oc3ccnc(NC(=O)C4CC4)c3)c(F)c2)ccc1F [Exe. 183]
Given back: 7.87

Now consider the entry below.
Asked: Would you kindly share the measured pIC50 for Cc1cc(NC(=O)Nc2cccc(C(F)(F)F)c2)ccc1Oc1ccnc(NC(=O)C2CC2)c1 [Exe. 231] ?
Given back: 7.94
